- Tested on: SN12C
- run_description: NCI tumour cell line growth inhibition, 48 h
Active and inactive are the calls of the source. Rule as the data show it: active = GI50 up to about 1.1 µM and inactive = higher. Where a SMILES comes first, the peptide text is derived from it. The star is where a group is joined. Fmoc = O=C(OCC1c2ccccc2-c2ccccc21)*; OBn = c1ccc(CO*)cc1; tBu = CC(C)(C)*
Outcomes: t for active, f for inactive

molecule	assigned_class
O=C1OC(C2OC(=O)c3cc(O)c(O)c(O)c3-c3c(O)c(O)c4oc(=O)c5c(c(O)c(O)c6oc(=O)c3c4c65)-c3c(cc(O)c(O)c3O)C(=O)OCC2O)C2OC(=O)c3c(c(O)c(O)c(O)c3[C@H]2O)-c2c1cc(O)c(O)c2O (stereo partly specified)	f
Cc1ccc(S(N)(C(=O)Nc2cccc3ccccc23)[N+](=O)[O-])cc1 (stereo unspecified)	f
Cc1cc(=O)[nH]c2cc(NC(=O)C(CCCNC(=N)N)NC(=O)OCc3ccccc3)ccc12 (stereo unspecified)	f
CCOC(=O)NC(Nc1ccc(F)cc1)(C(=O)OCC)C(F)(F)F (stereo unspecified)	f
COC(=O)C1(Cc2ccccc2)Cc2cc3c(cc2C1O)CCC3 (stereo unspecified)	f
O=c1c2cc(Br)cc(Br)c2[nH]c(=S)n1-c1ccccc1	f
O=C1OC2(OC2c2ccc(Cl)cc2)c2ccccc21 (stereo unspecified)	f
CCOC1SC(SC)=NN1C(=O)C(OC(C)=O)C(OC(C)=O)C(OC(C)=O)C(OC(C)=O)C(=O)N1N=C(SC)SC1OCC (stereo unspecified)	f
NCc1ccc(O)c(O)c1O	f
CCC/C(Cl)=N\OC(=O)Nc1ccc(Br)cc1	f
COc1cc(C2c3cc4c(cc3OC(NNS(=O)(=O)c3ccc(C)cc3)C2C)OCO4)cc(OC)c1O (stereo unspecified)	f
NS(=O)(=O)c1cc(C(=O)O)c(O)c2ccccc12	f
Oc1cccnc1/C=N/OCc1ccccc1	f
O=c1[nH]c(=S)c2cc3c(=S)[nH]c(=O)n(CCO)c3nc2n1CCO	f
Cc1ccccc1OC(C)C(=O)NN1C(=O)CSC1c1ccccc1 (stereo unspecified)	f
O=C(c1ccc(-c2ccccc2)cc1)N(Cc1cccnc1)C(=S)N(Cc1cccnc1)C(=O)c1ccc(-c2ccccc2)cc1	f
CC1(C)CCCCCCCCCC(C)(CCCO)C1=O (stereo unspecified)	f
C/C(=N\NC(=S)N1CCN(c2ccccn2)CC1)c1ccccn1	t
C/C(=N\N=C(/S)N1CC2CCC(CC2)C1)c1cccc[n+]1[O-]	f
O=C(O)CCCCn1cnc2c(S)ncnc21	f
CC(OC(C)(C)C)C(NC(=O)OCC1c2ccccc2-c2ccccc21)C(=O)NC(Cc1ccccc1)C(=O)OCc1ccccc1 (stereo unspecified) (Fmoc-Thr(tBu)-Phe-OBn; configuration not given here)	f
O=c1[nH]nc(-c2ccccc2)n1-c1ccncc1	f
Cc1nn(C(=O)c2ccccc2O)c2c1C(c1ccc(O)cc1O)SC(=N)N2 (stereo unspecified)	f
C(=N\N=C1NCCN1)/c1ccc2ccccc2c1	f
CC(=O)/C=C/C=C(\C)CC/C=C(\C)CC(C)C	f
O=C(O)c1cc2sc(C(=O)O)cc2s1	f

---

- Test system: CCRF-CEM
- run_description: NCI tumour cell line growth inhibition, 48 h
Activity calls are given as the source filed them. No stated cut-off is given here; in the data, active = GI50 up to about 1.1 µM and inactive = higher. Where a SMILES comes first, the peptide text is derived from it. The star is where a group is joined. Fmoc = O=C(OCC1c2ccccc2-c2ccccc21)*; OBn = c1ccc(CO*)cc1; tBu = CC(C)(C)*
measured_property: GI50

compound	value
C/C(=N\c1ccc(Cl)c(Cl)c1)c1ccncc1	> 100 µM (inactive)
C=CCCCCCCCCC(=O)ON(Cc1ccc(O)c(OC)c1)C(=O)C(F)(F)F	10 µM (inactive)
CSc1nc(=O)cnn1C	> 100 µM (inactive)
CCC(c1ccc(OC)cc1)C1NC(=S)NC1=O (stereo not drawn)	> 50 µM (inactive)
Cc1c(-c2ccccc2)cc(O)c2nc3ccccc3n12	17 µM (inactive)
COC(=O)[C@H](C)NC(=O)[C@H](NS(=O)(=O)c1nc2ccccc2s1)c1ccccc1	34.4 µM (inactive)
CC(C)(C)C(=O)Nc1ccccc1Br	> 100 µM (inactive)
CC1=Nn2c(nc3sc4c(c3c2=O)CCCC4)SC1	35.3 µM (inactive)
COC(=O)C1(Cc2ccccc2)Cc2cc3c(cc2C1O)CCC3 (stereo not drawn)	16.1 µM (inactive)
C=CCNC(=S)N/C=C(\C#N)C(N)=O	> 100 µM (inactive)
COC(=O)C(=O)CC(=O)CCn1ncc(Cl)c(Cl)c1=O	3.59 µM (inactive)
COCOCc1cc(OCc2ccccc2)c(OC)cc1Br	> 100 µM (inactive)
Nc1n[nH]c2nc3ccccc3nc12	34.4 µM (inactive)
COC[C@@H](/N=C/N1CCc2cc(OC)c(OC)cc2[C@@H]1C)C(C)(C)C	> 100 µM (inactive)
COc1cc2c(c(OC)c1OC)-c1ccc(SC)c(=O)cc1[C@@H](NC(=O)c1ccc([N+](=O)[O-])cc1)CC2	< 0.0025 µM (active)
C=C(C(=O)C(=O)Oc1ccc(Cl)cc1)C(=O)c1ccc(C)cc1	22.8 µM (inactive)
CN(CCCNC(=O)c1cn(C)c2c1Cc1ccccc1-2)CCCNC(=O)c1cn(C)c2c1Cc1ccccc1-2	2.74 µM (inactive)
Oc1cccnc1/C=N/OCc1ccccc1	> 100 µM (inactive)
COc1cccc2c1[C@H]1OC(=O)NC1CCCCC2 (stereo partly drawn)	> 100 µM (inactive)
COc1cc(/C=C/C=C2\CC/C(=C\C=C\c3ccc(O)c(OC)c3)C2=O)ccc1O	0.305 µM (active)
CCN(CC)c1ccc(/N=C2/C=CC(=O)c3ncccc32)c(C)c1	2.09 µM (inactive)
Cc1cccc2c1C/C(=C\c1cccc(C)c1C(=O)O)C2=O	84.9 µM (inactive)
O=C1N/C(=N/N=C/c2ccccc2)N/C1=C\c1cccs1	13.3 µM (inactive)
c1ccc2cc3n[se]nc3cc2c1	32.5 µM (inactive)
C=CCP(=O)(CC=C)C(Cl)Cl	> 100 µM (inactive)
CC(=O)OC1(C#N)CC2OC1C1NC21 (stereo not drawn)	> 100 µM (inactive)
CC(=O)NC(CCCCNCc1ccccc1)C(=O)NCc1ccccc1 (stereo not drawn)	> 100 µM (inactive)
Cc1ccc(C)c(NC(=O)c2cccc([N+](=O)[O-])c2O)c1	> 100 µM (inactive)
N=C(N)NS(=O)(=O)c1ccc(NCc2c3ccccc3[n+]([O-])c3ccccc23)cc1	5.64 µM (inactive)
CC(=O)/C=C/C=C(\C)CC/C=C(\C)CC(C)C	13.5 µM (inactive)
CC(C)CNCCc1ccccn1	> 100 µM (inactive)
Cc1cc2nc3c(C#N)c(-c4ccccc4)cc(Nc4ccc(Cl)cc4)n3c2cc1C	4.53 µM (inactive)
COP(=O)(OC)/C(=C/c1cn(C(C)=O)c2ccccc12)NC(C)=O	16.7 µM (inactive)
O=C1NC(=O)C2C1N(Cc1ccccc1)C(=O)N2Cc1ccccc1 (stereo not drawn)	> 100 µM (inactive)
O=C1OC(C2OC(=O)c3cc(O)c(O)c(O)c3-c3c(O)c(O)c4oc(=O)c5c(c(O)c(O)c6oc(=O)c3c4c65)-c3c(cc(O)c(O)c3O)C(=O)OCC2O)C2OC(=O)c3c(c(O)c(O)c(O)c3[C@H]2O)-c2c1cc(O)c(O)c2O (stereo partly drawn)	10.9 µM (inactive)
COc1ccc(N2C(=O)C3c4[nH]c5ccccc5c4C4CCC(c5ccccc5)CC4C3C2=O)cc1 (stereo not drawn)	6 µM (inactive)
COc1cc(C2CC(C)(N3CCCC3)Oc3cc4c(cc32)OCO4)cc(OC)c1OC (stereo not drawn)	0.184 µM (active)
CN(C)Cc1cc(C(=O)/C=C/c2ccc(Cl)c(Cl)c2)cc(CN(C)C)c1O	1.89 µM (inactive)
NP(=O)(Oc1c2occc2cc2ccc(=O)oc12)N(CCCl)CCCl (stereo not drawn)	45.2 µM (inactive)
COc1cc2c(cc1OC)-c1cc3ccccc3c(=O)n1CC2	25 µM (inactive)
CC(OC(C)(C)C)C(NC(=O)OCC1c2ccccc2-c2ccccc21)C(=O)NC(Cc1ccccc1)C(=O)OCc1ccccc1 (stereo not drawn) (Fmoc-Thr(tBu)-Phe-OBn; configuration not given here)	> 100 µM (inactive)
CCCCCCCCCCCCCCCCCCNC(=O)OCC(CNS(=O)(=O)CCC[n+]1cccc2ccccc21)COC (stereo not drawn)	1.06 µM (active)
CC1=NN=C(N)N/C1=C\C(Sc1ccc(Cl)cc1)c1ccc([N+](=O)[O-])cc1 (stereo not drawn)	27.5 µM (inactive)
